- assay-system: T1, human CCR8 (human, UniProt P51685 1-355)
- T1 construct: whole, on cells; also called hCCR8
- T1 sequence (P51685 whole entry): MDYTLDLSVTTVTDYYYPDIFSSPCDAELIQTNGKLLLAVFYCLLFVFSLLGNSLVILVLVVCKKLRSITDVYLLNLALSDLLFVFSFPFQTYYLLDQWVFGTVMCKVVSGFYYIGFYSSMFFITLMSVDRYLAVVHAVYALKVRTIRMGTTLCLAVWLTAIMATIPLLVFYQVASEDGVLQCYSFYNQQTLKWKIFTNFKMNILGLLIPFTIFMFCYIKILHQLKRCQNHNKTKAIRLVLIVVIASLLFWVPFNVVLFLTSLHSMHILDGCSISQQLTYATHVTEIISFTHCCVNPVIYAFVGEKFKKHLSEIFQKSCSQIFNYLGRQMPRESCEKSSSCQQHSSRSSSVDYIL
- assay-overview: FACS on HuT78 cells (endogenous human CCR8)
outcome-measure: Max MFI (MFI)
Give just the number in MFI; leave the unit off.

Consider the reported Max MFI for these binders:
{"binder": "Hu149-21 (antibody, human IgG1, V domains shown, human IgG1) VH: EVQLVESGGGLVQPGGSLKLSCAASGFTFNTYAMNWVRQASGKGLEWVGRIRSKSNFYATAYAASVKGRFTISRDDSKNTAYLQMNSLKTEDTAVYYCTRGREYGRSYAMDYWGQGTLVTVSS VL: DIVMTQSPLSLPVTPGEPASISCRSSKSLLHSNANTYLYWFLQKPGQSPQLLIYRMSNLASGVPDRFSGSGSGTDFTLKISRVEAEDVGVYYCMQHLKYPLTFGGGTKVELK", "Max MFI (MFI)": 240000}
{"binder": "Hu149-14 (antibody, human IgG1, V domains shown, human IgG1) VH: EVQLVESGGGLVQPGGSLKLSCAASGFTFNTYAMNWVRQASGKGLEWVGRIRSKSNFYATAYAASVKGRFTISRDDSKNTAYLQMNSLKTEDTAVYYCTRGREYGSAYAMDYWGQGTLVTVSS VL: DIVMTQSPLSLPVTPGEPASISCRSSKSLLHSNANTYLYWFLQKPGQSPQLLIYRMSNLASGVPDRFSGSGSGTDFTLKISRVEAEDVGVYYCMQHLEYPLTFGGGTKVELK", "Max MFI (MFI)": 28600}
{"binder": "Hu149-20 (antibody, human IgG1, V domains shown, human IgG1) VH: EVQLVESGGGLVQPGGSLKLSCAASGFTFNTYAMNWVRQASGKGLEWVGRIRSKSNFYATAYAASVKGRFTISRDDSKNTAYLQMNSLKTEDTAVYYCTRGKEYGSSYAMDYWGQGTLVTVSS VL: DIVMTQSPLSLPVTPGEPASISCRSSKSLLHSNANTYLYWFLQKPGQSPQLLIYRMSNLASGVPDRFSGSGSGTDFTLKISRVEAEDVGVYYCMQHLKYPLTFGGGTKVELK", "Max MFI (MFI)": 253000}
{"binder": "Hu149-16 (antibody, human IgG1, V domains shown, human IgG1) VH: EVQLVESGGGLVQPGGSLKLSCAASGFTFNTYAMNWVRQASGKGLEWVGRIRSKSNFYATAYAASVKGRFTISRDDSKNTAYLQMNSLKTEDTAVYYCTRGRDYGSSYAMDYWGQGTLVTVSS VL: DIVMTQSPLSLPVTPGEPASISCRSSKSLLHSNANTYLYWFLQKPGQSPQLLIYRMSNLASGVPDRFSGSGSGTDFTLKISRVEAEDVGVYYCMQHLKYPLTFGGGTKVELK", "Max MFI (MFI)": 228000}

Please turn your attention to the following entry.
Entry Hu149-19 (antibody, human IgG1, V domains shown, human IgG1) VH: EVQLVESGGGLVQPGGSLKLSCAASGFTFNTYAMNWVRQASGKGLEWVGRIRSKSNFYATAYAASVKGRFTISRDDSKNTAYLQMNSLKTEDTAVYYCTRGREYGSSYAMDYWGQGTLVTVSS VL: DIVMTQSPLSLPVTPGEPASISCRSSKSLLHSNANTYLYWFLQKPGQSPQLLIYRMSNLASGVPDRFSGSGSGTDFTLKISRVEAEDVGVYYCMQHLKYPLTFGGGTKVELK ; Max MFI = 187000
